All figures here come from ChEMBL document CHEMBL1148324.

- Experimental System: Sulfonylurea receptors; K-ATP channels (Homo sapiens, UniProt O60706+Q09428+Q14654+Q15842)
- Assay Comment: Evaluated for K-ATP activity in terms of change in membrane potential through guinea pig bladder assay
- Format: functional, Cavia porcellus
- Test Conditions: target entry is the homologue from another species
# label = label 1 if EC50 < 0.2 µM else label 0

Example results:
{"Molecule": "CCc1cc(C#N)ccc1Nc1c(N[C@H](C)C(C)(C)C)c(=O)c1=O", "Class Label": "label 0"}
{"Molecule": "O=C1CCCC2=C1[C@H](c1ccc(C(F)(F)F)c(Br)c1)C1=C(CCS1(=O)=O)N2", "Class Label": "label 0"}
{"Molecule": "O=C1CCCC2=C1[C@H](c1ccc(Cl)c(Cl)c1)C1=C(CCS1(=O)=O)N2", "Class Label": "label 0"}
{"Molecule": "N#Cc1cc(C2C3=C(CCC3=O)NC3=C2S(=O)(=O)CC3)ccn1 (centres undefined)", "Class Label": "label 0"}
{"Molecule": "O=C1CCC2=C1[C@H](c1ccc(F)c(Br)c1)C1=C(CCCS1(=O)=O)N2", "Class Label": "label 0"}

Query: EC50 strictly < 0.2 µM for this molecule? O=C1CCC2=C1[C@@H](c1ccc(F)c(Br)c1)C1=C(CCCS1(=O)=O)N2
Result: label 1

Query: EC50 strictly < 0.2 µM for this molecule? O=C1CCCC2=C1[C@H](c1ccc(F)c(C(F)(F)F)c1)C1=C(CCS1(=O)=O)N2
Result: label 1

Query: EC50 strictly < 0.2 µM for this molecule? Cc1cc([C@H]2C3=C(CCCC3=O)NC3=C2S(=O)(=O)CC3)ccc1F
Result: label 0

Query: EC50 strictly < 0.2 µM for this molecule? O=C1CCCC2=C1[C@H](c1ccc(Cl)c(Br)c1)C1=C(CCS1(=O)=O)N2
Result: label 1
